Measured protein stability index accompanies every entry in the list below.
experiment: protein stability index of a GFP-peptide fusion (yeast GPS) (PSI 1-4); higher = more stable; sorted into four equal gates, so the index is relative within each strain; conditions: pdr5∆
Form rule: numeric answer, no unit written next to it.

{"MONOMER_SEQUENCE": "SRKGIAFGLGAIMSKSS [ECM29]", "protein stability index": 1.86}

Turning now to a further record.
Task item: Quick one: protein stability index of SAGDDGKVRLWKATYSN [YGL100W/SEH1] ?
Reply: 2.89

* * *

test: protein stability index of a GFP-peptide fusion (yeast GPS) (PSI 1-4); higher = more stable; sorted into four equal gates, so the index is relative within each strain; conditions: san1∆
Measured protein stability index accompanies every entry in the list below.
Form rule: numeric answer, no unit written next to it.

As a guide, the following entries are already answered.
{"MONOMER_SEQUENCE": "APTPAAPGASVPATAAP [SWI1]", "protein stability index": 3.11}
{"MONOMER_SEQUENCE": "KLISAFDDLEVEELPTF [RRP42]", "protein stability index": 2.5}
{"MONOMER_SEQUENCE": "SVKLDLQDDEDHKFPIR [BRN1]", "protein stability index": 2.76}
{"MONOMER_SEQUENCE": "DIGKGAETTFLQDVIAL [RPC53]", "protein stability index": 2.38}
{"MONOMER_SEQUENCE": "LRSRSFKSTESNISDEK [YMR129W/POM152]", "protein stability index": 2.88}
{"MONOMER_SEQUENCE": "KNMFEKKASKVTVDADI [ISW2]", "protein stability index": 2.83}

Task item: Quick one: protein stability index of FVHYGEIKNDFIMVKGC [RPL3] ?
Reply: 2.1

Task item: Follow-up entry: YTVNVVDVFAMPQSGTG [RPN11]
Reply: 3.3

Task item: Follow-up entry: TDKPFSSTQDVILRKIS [CSI1]
Reply: 2.92

Task item: Follow-up entry: NAYASFLQRQGKLEVPG [RPS19A]
Reply: 3.21

Task item: Follow-up entry: KLLKSLKNTKYFQQTTI [PRP8]
Reply: 2.34

Hello, the source for this data is the supplement of paper PMC9732359, in case you need it.
